Recorded LIVER for the following compounds
Organism: Rattus norvegicus
PROCEDURE_TEXT: Open TG-GATES - Regimen: Daily Repeat
Format: toxicity, organism-based, Sprague-Dawley
Design: regimen Daily Repeat, gender Male, age 6 weeks
EXPERIMENTAL_PARAMETERS: in vivo, po, 300 mg/kg, […], tissue Liver, route gavage, dose level Middle, time 28 day
For clarity, give the value followed by its unit.

1) CCOc1ccc(NC(=O)CC(C)O)cc1 (stereo not given); 18.4 g

Requested read-out: LIVER. Entry: NC(N)=Nc1nc(CSCCC(N)=NS(N)(=O)=O)cs1
14.9 g

Which LIVER is listed for COc1ccc2[nH]c([S+]([O-])Cc3ncc(C)c(OC)c3C)nc2c1 (stereo not given) ?
18.2 g

# get_value(readout='LIVER', item= CCOC(=O)CCC(=O)O[C@H]1[C@H](O[C@@H]2[C@@H](C)[C@H](O[C@H]3C[C@@](C)(OC)[C@@H](O)[C@H](C)O3)[C@@H](C)C(=O)O[C@H](CC)[C@@](C)(O)[C@H](O)[C@@H](C)C(=O)[C@H](C)C[C@@]2(C)O)O[C@H](C)C[C@@H]1N(C)C [ERYTHROMYCIN ETHYLSUCCINATE] )
15.4 g

Entry COC1=CC(=O)C[C@@H](C)[C@]12Oc1c(Cl)c(OC)cc(OC)c1C2=O has what LIVER?
17.3 g
